Measured STK11 functional score, listed per entry.
B1: library; numbered along this chain (parent)
chain: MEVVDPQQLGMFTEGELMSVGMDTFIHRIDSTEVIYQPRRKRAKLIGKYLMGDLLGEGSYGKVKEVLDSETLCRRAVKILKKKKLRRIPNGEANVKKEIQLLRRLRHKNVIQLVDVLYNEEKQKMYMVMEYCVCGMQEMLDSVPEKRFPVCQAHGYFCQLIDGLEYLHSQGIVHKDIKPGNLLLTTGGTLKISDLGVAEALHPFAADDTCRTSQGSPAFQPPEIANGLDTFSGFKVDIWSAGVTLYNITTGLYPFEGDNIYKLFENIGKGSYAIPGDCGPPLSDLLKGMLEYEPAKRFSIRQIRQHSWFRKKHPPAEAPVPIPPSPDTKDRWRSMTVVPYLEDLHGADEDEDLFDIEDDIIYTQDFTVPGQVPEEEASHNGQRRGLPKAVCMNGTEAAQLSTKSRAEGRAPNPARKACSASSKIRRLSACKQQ

Variants of: B1
Assay: STK11 functional score (HeLa growth suppression), rescaled enrichment; synonymous median = 1, nonsense median = 0 (normalised score)
Conditions: with HeLa; variant type: missense

mutations	STK11 functional score
I260E	-0.179
G10I	1.64
V66E	0.0829
E375I	1.59
Y118L	0.633
N119L	1.17
N181Y	-0.0251
L201H	1.16
T395W	1.61
E98I	0.496
A398T	1.3
H379W	0.788
Y60M	1.64
D208E	1.38
G215C	1.06
F366S	1.58
P144I	0.87
N109H	-0.0132
G135L	1.52
H154A	1.49
I274Q	1.62
G268Q	1.26
A406F	1.4
R39C	0.223
D343Y	1.29
E138R	-0.217
L400T	1.11
Y49L	0.852
E130C	0.373
E120R	0.779
D348S	1.59
S299L	0.649
S142N	1.16
L286D	-0.166
S421E	1.56
G188M	-0.0265
E349C	1.1
F219H	1.18
D30E	1.13
E33P	1.4
L190M	1.21
I361M	1.09
V133P	1.53
K403M	0.00927
I29V	1.68
P6Y	1.67
G227R	0.588
L45V	0.939
D365W	1.32
P275I	1.17
S213C	0.758
V4R	1.32
T402M	1.23
M289E	-0.103
L183A	0.587
H313Q	0.889
A414C	1.59
D284L	0.935
K122T	1.61
A43R	1.64
L117Y	1.55
L286N	0.195
L113D	-0.168
Q137S	1.42
P369L	1.13
S334I	0.935
Q382L	1.34
W332L	1.55
P179G	0.216
K191L	0.262
L263I	1.57
Y362L	1.17
K403F	1.2
K262S	0.994
H379K	1.37
E199S	1.21
